# Test system: HIV-1 wild type IIIB
# Experiment summary: Single cycle infectivity assay in HeLa P4-2 cells, wild type virus
# Assay type: cell-based
# Assay context: Human immunodeficiency virus 1, IIIB, HeLaP4-2, wild type IIIB
Recorded pIC50 values for a group of compounds are listed next.
Hey, just a heads up that pIC50 is the negative log base 10 of the concentration in molar.

Example cases with answers are listed next.
Compound	pIC50
O=C(NC12CCC(CC1)Cn1c2nc(C(=O)NCc2ccc(F)cc2)c(O)c1=O)C(=O)N1CCOCC1	8.05
Cc1nnc(C(=O)NC(C)(C)c2nc(C(=O)NCc3ccc(F)cc3)c(O)c(=O)n2C)o1 [Compound X, raltegravir, reference compound]	7.28
CN(C)C(=O)C(=O)NC12CCC(CC1)Cn1c2nc(C(=O)NCc2ccc(F)cc2)c(O)c1=O	8.17

Could you please provide reported pIC50 for CN(C)C(=O)C(=O)N(C)C12CCC(C)(Cn3c1nc(C(=O)NCc1ccc(F)cc1)c(O)c3=O)OC2 (single isomer, unassigned) [Example 21A] ? Thanks! 7.70

Give reported pIC50 value for CN(C(=O)C(=O)N1CCOCC1)C12CCC(CC1)Cn1c2nc(C(=O)NCc2ccc(F)cc2)c(O)c1=O 7.51

Provide one value: measured pIC50 of CCN(C(=O)C(=O)N(C)C)C12CCC(Cn3c1nc(C(=O)NCc1ccc(F)c(C)c1)c(O)c3=O)OC2 (centres unmarked) [Example 18A] 7.72

Tell us which pIC50 value is on record for CN(C)C(=O)C(=O)N(C)C12CCC(CC1)Cn1c2nc(C(=O)NCc2ccc(F)cc2)c(O)c1=O [Example 1] 8.14

Please give the documented pIC50 of Cc1cc(CNC(=O)c2nc3n(c(=O)c2O)CC2CCC3(N(C)C(=O)C(=O)N(C)C)CC2)ccc1F 8.40

Read the entry CNC(=O)C(=O)N(C)C12CCC(OC1)C(C)n1c2nc(C(=O)NCc2ccc(F)cc2)c(O)c1=O (single isomer, unassigned) [Example 28A] and write its reported pIC50. 7.34

Using known records, supply pIC50 for CCN(C(=O)C(=O)N(C)C)C12CCC(OC)(CC1)Cn1c2nc(C(=O)NCc2ccc(F)cc2)c(O)c1=O 7.82

Give reported pIC50 value for CCN(C(=O)C(=O)N(C)C)C12CCC(Cn3c1nc(C(=O)NCc1ccc(F)c(C)c1)c(O)c3=O)OC2 (single isomer, unassigned) [Example 18B] 8.00
